pIC50 values by entry
target: human JAK1 (a.a. 837-1142) (Homo sapiens, UniProt P23458); construct: human JAK1 (a.a. 837-1142); His tag (N); made in house; host or cells: insect cells (baculovirus); assay: In vitro JAK kinase assay (HTRF, phosphorylation of a biotinylated peptide), JAK1; assay type: biochemical; settings: Table B1; read-out: JAK1 IC50
Sequence (P23458 849-1154): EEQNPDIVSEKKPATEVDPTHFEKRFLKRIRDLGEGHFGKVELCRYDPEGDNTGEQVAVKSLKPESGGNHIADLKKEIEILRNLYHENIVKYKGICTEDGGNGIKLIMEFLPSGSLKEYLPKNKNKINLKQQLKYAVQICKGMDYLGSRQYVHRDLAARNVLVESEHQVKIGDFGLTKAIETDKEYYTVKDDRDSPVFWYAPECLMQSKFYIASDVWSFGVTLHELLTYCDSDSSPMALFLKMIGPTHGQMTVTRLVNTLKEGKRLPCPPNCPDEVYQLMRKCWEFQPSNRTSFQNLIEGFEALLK
pIC50: −log10 of the molar value. Counter-ions that a name gives are not always drawn.
Assay Metric: pIC50

> print(dat)
                                   compound  assay.result
1  CCc1ccc(NC(=O)Nc2ccc3cc2CCc2cccc(c2)Nc2ncc(Cl)c(n2)N3)cc1 [Example B98, trifluoroacetate]          7.89
2  Cc1ccc(NC(=O)Nc2ccc3cc2CCc2cccc(c2)Nc2ncc(Cl)c(n2)N3)cc1 [Example B92, trifluoroacetate]          8.40
3  CN(C(=O)Nc1ccc2cc1CCc1cncc(c1)Nc1ncc(Cl)c(n1)N2)[C@H]1CCN(C(=O)c2ccccc2)C1 [Example B291, bis(trifluoroacetate)]          7.55

====

target: Recombinant Human Anaplastic Lymphoma Kinase (Homo sapiens); construct: purchased Invitrogen, Carlsbad, Calif; assay: ALK HTRF kinase assay; format: biochemical; details: compound at 500 nM or 1 mM; 90 μM ATP
Where a name gives a salt, the structure may show the parent alone.
Assay Metric: ALK % of inhibition at a concentration of 500 nM or 1 mM (%)

> print(dat)
                                   molecule  assay.result
1  N#Cc1ccc(NC(=O)N2CCN(C(=O)COc3ccc4cc3CCc3cccc(c3)Nc3ncc(Cl)c(n3)N4)CC2)cc1 [Example A9, trifluoroacetate]             0
2  Cc1cc(C(=O)N2CC[C@@H](C(=O)Nc3ccc4cc3CCc3cccc(c3)Nc3ncc(Cl)c(n3)N4)C2)no1            52
3  Cc1cc(C(=O)N2CCN(CC(=O)Nc3ccc4cc3CCc3cccc(c3)Nc3ncc(Cl)c(n3)N4)CC2)no1 [Example A123, bis(trifluoroacetate)]            26

====

biological target: Recombinant Human Anaplastic Lymphoma Kinase (Homo sapiens, UniProt Q9UM73); construct: purchased Invitrogen, Carlsbad, Calif; test: ALK HTRF kinase assay; type: biochemical; settings: compound at a concentration of 500 nM or 1 mM (not specified); cells shown as percentage
Sequence (Q9UM73 19-1620): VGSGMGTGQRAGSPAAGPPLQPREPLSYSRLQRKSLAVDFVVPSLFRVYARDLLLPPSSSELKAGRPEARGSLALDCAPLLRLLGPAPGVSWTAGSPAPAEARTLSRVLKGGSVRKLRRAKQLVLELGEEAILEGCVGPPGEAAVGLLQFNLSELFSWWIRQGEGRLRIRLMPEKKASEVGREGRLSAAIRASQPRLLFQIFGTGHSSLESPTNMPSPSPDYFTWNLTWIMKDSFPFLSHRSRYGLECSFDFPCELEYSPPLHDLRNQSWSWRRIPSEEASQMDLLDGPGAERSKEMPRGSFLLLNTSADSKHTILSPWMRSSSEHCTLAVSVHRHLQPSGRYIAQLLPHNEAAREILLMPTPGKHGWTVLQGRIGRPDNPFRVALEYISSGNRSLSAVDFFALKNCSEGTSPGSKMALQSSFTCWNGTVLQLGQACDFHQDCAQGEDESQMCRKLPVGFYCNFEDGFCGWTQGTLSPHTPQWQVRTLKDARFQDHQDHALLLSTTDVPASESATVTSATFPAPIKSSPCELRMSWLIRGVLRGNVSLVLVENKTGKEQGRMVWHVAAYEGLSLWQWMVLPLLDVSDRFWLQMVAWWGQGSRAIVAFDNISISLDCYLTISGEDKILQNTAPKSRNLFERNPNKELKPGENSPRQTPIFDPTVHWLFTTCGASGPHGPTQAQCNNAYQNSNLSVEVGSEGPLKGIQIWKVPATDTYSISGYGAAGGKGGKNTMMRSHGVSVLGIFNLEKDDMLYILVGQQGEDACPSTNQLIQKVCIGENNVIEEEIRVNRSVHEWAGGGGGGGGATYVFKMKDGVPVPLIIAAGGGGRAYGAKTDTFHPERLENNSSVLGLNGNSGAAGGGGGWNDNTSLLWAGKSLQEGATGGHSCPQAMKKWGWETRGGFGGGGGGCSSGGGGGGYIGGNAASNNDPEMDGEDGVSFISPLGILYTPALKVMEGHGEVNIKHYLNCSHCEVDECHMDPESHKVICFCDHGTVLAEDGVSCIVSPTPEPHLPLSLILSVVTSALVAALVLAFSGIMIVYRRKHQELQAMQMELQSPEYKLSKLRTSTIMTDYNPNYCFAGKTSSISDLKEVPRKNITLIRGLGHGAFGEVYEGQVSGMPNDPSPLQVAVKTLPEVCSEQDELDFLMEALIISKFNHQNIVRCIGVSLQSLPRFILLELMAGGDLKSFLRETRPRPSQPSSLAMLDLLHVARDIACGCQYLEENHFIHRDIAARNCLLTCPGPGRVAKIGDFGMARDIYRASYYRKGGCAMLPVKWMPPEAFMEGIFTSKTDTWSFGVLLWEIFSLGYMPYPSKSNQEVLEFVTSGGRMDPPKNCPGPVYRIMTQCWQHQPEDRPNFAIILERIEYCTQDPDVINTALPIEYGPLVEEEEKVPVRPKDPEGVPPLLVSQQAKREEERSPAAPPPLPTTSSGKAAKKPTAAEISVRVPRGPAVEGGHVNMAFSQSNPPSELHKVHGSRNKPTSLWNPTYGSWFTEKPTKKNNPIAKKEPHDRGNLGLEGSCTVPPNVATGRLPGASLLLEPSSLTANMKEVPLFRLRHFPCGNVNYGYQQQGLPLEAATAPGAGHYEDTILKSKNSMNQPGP
Counter-ions that a name gives are not always drawn.
Assay Metric: ALK % of inhibition at a concentration of 500 nM or 1 mM (%)

> print(dat)
                                   molecule                               test.target  assay.result
1  Cc1oncc1C(=O)N1CCC(NC(=O)Nc2ccc3cc2CCc2cccc(c2)Nc2ncc(Cl)c(n2)N3)CC1 [Example B264, trifluoroacetate]  Recombinant Human Anaplastic Lymphoma Kinase (Homo sapiens, UniProt Q9UM73)            27
2  O=C(Nc1ccc2cc1CCc1cccc(c1)Nc1ncc(Cl)c(n1)N2)Nc1ccccc1-c1ccccc1 [Example B130, trifluoroacetate]  Recombinant Human Anaplastic Lymphoma Kinase (Homo sapiens, UniProt Q9UM73)             0
3  O=C(NCc1ccncc1)Nc1ccc2cc1CCc1cccc(c1)Nc1ncc(Cl)c(n1)N2 [Example B246]  Recombinant Human Anaplastic Lymphoma Kinase (Homo sapiens, UniProt Q9UM73)            23
4  NS(=O)(=O)N1CC[C@@H](NC(=O)Nc2ccc3cc2CCc2cccc(c2)Nc2ncc(Cl)c(n2)N3)C1 [Example B179, trifluoroacetate]  Recombinant Human Anaplastic Lymphoma Kinase (Homo sapiens, UniProt Q9UM73)            43
